target: Cereblon/Ikaros (Homo sapiens) (UniProt Q96SW2+Q13422); test: Protac activity at CRBN/ IKZF1 in human MM1S cells assessed as IKZF1 degradation by measuring IKZF1/tubulin ratio at 0.1 uM after 16 hrs by Western blot analysis relative to tubulin; type: cell-based; design: unit not given here
Result type: Ratio

See these solved cases before continuing.
O=C(CC12CC3CC(CC(C3)C1)C2)NCCCOCCOCCOCCCNc1cccc2c1C(=O)N(C1CCC(=O)NC1=O)C2=O (configuration not stated): 24
Cc1ncsc1-c1ccc(CNC(=O)[C@@H]2C[C@@H](O)CN2C(=O)[C@@H](NC(=O)CCCCOCCCCCOCCCCCCNc2cccc3c2C(=O)N(C2CCC(=O)NC2=O)C3=O)C(C)(C)C)cc1 (some centres not stated): 99
O=C(CC12CC3CC(CC(C3)C1)C2)NCCOCCOCCOCCNc1cccc2c1C(=O)N(C1CCC(=O)NC1=O)C2=O (configuration not stated): 16

A. O=C(CC12CC3CC(CC(C3)C1)C2)NCCCOCCOCCCNc1cccc2c1C(=O)N(C1CCC(=O)NC1=O)C2=O (configuration not stated)
B. O=C1CCC(N2C(=O)c3cccc(NCCOCCOCCNc4cccc5c4C(=O)N(C4CCC(=O)NC4=O)C5=O)c3C2=O)C(=O)N1 (configuration not stated)
C. O=C(CC12CC3CC(CC(C3)C1)C2)NCCOCCOCCNc1cccc2c1C(=O)N(C1CCC(=O)NC1=O)C2=O (configuration not stated)
D. O=C(CC12CC3CC(CC(C3)C1)C2)NCCCOCCCCOCCCNc1cccc2c1C(=O)N(C1CCC(=O)NC1=O)C2=O (configuration not stated)
Task: Sort the 4 molecules by Ratio; largest first, smallest last. Answer format: the labels, in the requested order.
Result: B, D, A, C
(B: 79, D: 30, A: 15, C: 7.1)
